Measured Kd by item
subject-of-test: HLA-A*23:01
experiment-notes: IEDB peptide-MHC binding, purified MHC/competitive/radioactivity; filed as Kd, often an IC50 or EC50 that approximates it; bounds were set here for any values at or beyond the usual limits of such assays
condition-summary: source organism: SARS coronavirus Tor2
property: Kd

# chain-sequence, result
records = [
    ("SGALDTTSY", "≥ 77.8 µM"),
    ("IDETCEHEY", "≥ 77.8 µM"),
    ("NVSLVKPTVY", "≥ 70 µM"),
    ("SSPDAVTTY", "≥ 77.8 µM"),
    ("WFSQRGGSY", "≥ 77.8 µM"),
    ("ASLGPLRETY", "≥ 70 µM"),
    ("VSSPDAVTTY", "≥ 70 µM"),
    ("DYDCVSFCY", "≥ 20.9 µM"),
]

###

Measured pKd by item
subject-of-test: HLA-A*11:01
experiment-notes: IEDB peptide-MHC binding, purified MHC/competitive/radioactivity; filed as Kd, often an IC50 or EC50 that approximates it; bounds were set here for any values at or beyond the usual limits of such assays
condition-summary: source organism: Vaccinia virus WR
pKd: −log10 of the molar value.

# chain-sequence, subject-of-test, pKd
rows = [
    ("KFNDYRKQMY", "HLA-A*11:01", "≤ 4.65"),
    ("FADNDRQDIY", "HLA-A*11:01", "≤ 4.34"),
    ("LPRPDTRHL", "HLA-A*11:01", "≤ 4.11"),
]

###

Measured pKd by item
subject-of-test: HLA-A*33:01
experiment-notes: IEDB peptide-MHC binding, purified MHC/competitive/radioactivity; filed as Kd, often an IC50 or EC50 that approximates it; bounds were set here for any values at or beyond the usual limits of such assays
condition-summary: source organism: Vaccinia virus WR
pKd: −log10 of the molar value.
property: pKd

# chain-sequence, result
rows = [
    ("YVMNIERQDY", "≤ 4.63"),
    ("LPRPDTRHL", "≤ 4.11"),
    ("RVAVNKSNK", "≤ 4.28"),
    ("YSSMTSDSK", "≤ 4.67"),
    ("KLMEEYLRR", "≤ 4.66"),
    ("RVMANNVKK", "≤ 4.11"),
    ("QIFNEDTSYY", "≤ 4.15"),
]

###

Measured Kd by item
subject-of-test: HLA-A*30:02
experiment-notes: IEDB peptide-MHC binding, purified MHC/competitive/radioactivity; filed as Kd, often an IC50 or EC50 that approximates it; bounds were set here for any values at or beyond the usual limits of such assays
condition-summary: source organism: SARS coronavirus Tor2

# chain-sequence, subject-of-test, readout-qualifier, Kd (nM)
rows = [
    ("VSSPDAVTTY", "HLA-A*30:02", "=", 11.3),
    ("IDETCEHEY", "HLA-A*30:02", "=", 162),
    ("ASLGPLRETY", "HLA-A*30:02", "=", 154),
    ("QFKDNVILL", "HLA-A*30:02", "≥", 40000),
]

###

Measured pKd by item
subject-of-test: HLA-A*11:01
experiment-notes: IEDB peptide-MHC binding, purified MHC/competitive/radioactivity; filed as Kd, often an IC50 or EC50 that approximates it; bounds were set here for any values at or beyond the usual limits of such assays
condition-summary: source organism: Vaccinia virus WR
pKd: −log10 of the molar value.

# chain-sequence, readout-qualifier, pKd
measured = [
    ("TSEKYSKGY", "≤", 4.11),
    ("DAYNIADAAR", "=", 6.21),
    ("KSLNRQTVSR", "=", 6.73),
    ("NTYLFNILY", "=", 6.58),
    ("VSMMSMYGK", "=", 8.93),
    ("SITPNNLNK", "=", 7.60),
    ("ATSSFREKSR", "=", 8.86),
    ("KLMEEYLRR", "=", 8.01),
    ("SSFIVPEFAK", "=", 9.27),
    ("VSVDAMIHK", "=", 8.61),
    ("FSGKEPISDY", "≤", 4.28),
    ("QMREIITGNK", "=", 5.77),
    ("RMLFTSTNDK", "=", 8.81),
    ("KSTQSVLCVK", "=", 9.30),
    ("IIKLPTLFGR", "=", 6.86),
    ("NSEYIESKAK", "=", 5.71),
    ("KIPIYSHTER", "=", 5.94),
    ("PISASDMQK", "=", 6.79),
    ("FIHMVRCCK", "=", 5.70),
]

###

Measured pKd by item
subject-of-test: HLA-A*02:03
experiment-notes: IEDB peptide-MHC binding, purified MHC/competitive/radioactivity; filed as Kd, often an IC50 or EC50 that approximates it; bounds were set here for any values at or beyond the usual limits of such assays
condition-summary: source organism: Vaccinia virus WR
pKd: −log10 of the molar value.
property: pKd

# chain-sequence, property, readout-qualifier, number
measured = [
    ("TQVKELGIA", "pKd", "=", 7.28),
    ("ILSNKLLYAA", "pKd", "=", 5.95),
    ("VTDKTAYIGT", "pKd", "=", 5.40),
    ("NINIEVKLFI", "pKd", "=", 5.69),
    ("NTYLFNILY", "pKd", "=", 5.81),
    ("AMIHKTYIDV", "pKd", "=", 7.57),
    ("NASKFVYVSV", "pKd", "=", 8.07),
    ("TAFFNTCKPT", "pKd", "≤", 4.65),
    ("KLDDTGKKEL", "pKd", "=", 6.86),
    ("KLYGYASLTT", "pKd", "=", 9.58),
    ("VLEKKVCAIT", "pKd", "=", 5.91),
    ("NINFNNSSII", "pKd", "=", 4.88),
    ("ILGIIITVGM", "pKd", "=", 6.58),
    ("TVDFTDCRT", "pKd", "≤", 4.57),
    ("KTNTKHCPKI", "pKd", "=", 4.96),
    ("WVMDTLNGI", "pKd", "=", 9.00),
    ("NTKSDNIINI", "pKd", "=", 5.97),
    ("SIENKHQRRL", "pKd", "≤", 4.68),
]

###

subject-of-test: HLA-A*02:06
experiment-notes: IEDB peptide-MHC binding, purified MHC/competitive/radioactivity; filed as Kd, often an IC50 or EC50 that approximates it; bounds were set here for any values at or beyond the usual limits of such assays
condition-summary: source organism: Vaccinia virus WR
pKd: −log10 of the molar value.
So basically: pKd at 7 or higher? That is 1.0. Lower than 7? That is 0.0.

# chain-sequence, subject-of-test, group-label
records = [
    ("NINFNNSSII", "HLA-A*02:06", 0.0),
    ("STISWMMKL", "HLA-A*02:06", 1.0),
    ("TQVKELGIA", "HLA-A*02:06", 1.0),
    ("NMDWRSLTQV", "HLA-A*02:06", 1.0),
    ("KLDDTGKKEL", "HLA-A*02:06", 0.0),
    ("DTIESAKTKI", "HLA-A*02:06", 0.0),
    ("NINIEVKLFI", "HLA-A*02:06", 0.0),
    ("TTENAAYQV", "HLA-A*02:06", 0.0),
    ("DVGCLLTDT", "HLA-A*02:06", 0.0),
    ("ALYYVHSLL", "HLA-A*02:06", 0.0),
    ("SLKRFTHTT", "HLA-A*02:06", 0.0),
    ("ILGIIITVGM", "HLA-A*02:06", 0.0),
    ("DTCLLAISA", "HLA-A*02:06", 0.0),
    ("WVMDTLNGI", "HLA-A*02:06", 1.0),
    ("KLYGYASLTT", "HLA-A*02:06", 1.0),
]
